- System: TK-10 renal
- Assay comment: NCI tumour cell line growth inhibition, 48 h
# maps each entry to its TGI
Reported property: TGI

1) CCn1c2ccccc2c2cc(Nc3cc(C)[nH]c(=O)n3)ccc21: > 100 µM
2) CC(N1CCOCC1)C(O)(c1ccccc1)c1ccccn1 (centres undefined): > 100 µM
3) Oc1ccc(Cl)cc1/C=N\NC(=S)N/N=C/c1cc(Cl)ccc1O: 34.5 µM
4) CCCCCCCCCCCCCCCCOCC(O)CO (centres undefined): 28.9 µM
5) COc1ccc(-c2n/c(=C\c3c(O)[nH]c4ccccc34)cc3c2=Nc2ccccc2-3)cc1: 3.01 µM
6) CC(C)N1C(C)[C@@H](c2ccccc2)O[P@]1(=O)CC1=CCCCC1 (some centres undefined): > 100 µM
7) CCCCC[C@H]1CCCCCCCCCC(=O)OC2C(O[C@@H]3OC(C)[C@H](OC(=O)[C@@H](C)CC)C(O[C@@H]4OC(C)[C@H](O)C(O)[C@@H]4O)[C@@H]3OC(=O)[C@H](C)CC)[C@H](OC3C(O)[C@@H](O)C(C)O[C@H]3O1)OC(CO)[C@H]2O (some centres undefined): 34.3 µM
8) COC(=O)C(NC(=O)OC(C)(C)C)P(=O)(OC)OC (centres undefined): > 100 µM
9) CC1C2(C)OCC(C#N)(C(=N)O2)C1(C#N)C#N (centres undefined): > 100 µM

----------
# maps each entry to its TGI
- Tested on: RXF 393 renal
- Assay comment: NCI tumour cell line growth inhibition, 48 h
Reported property: TGI (µM)

1) CC1C2(C)OCC(C#N)(C(=N)O2)C1(C#N)C#N (stereo not given): 65.7
2) Cc1cc(Nc2nc(-c3ccncc3)nc3ccccc23)n[nH]1: 9.29
3) NS(=O)(=O)c1ccc(NC(=O)c2cccc(NC3=C(Cl)C(=O)N(Cc4ccccc4)C3=O)c2)cc1: 33.9
4) O=C1C=Cc2ncccc2C1=O: 35.9
5) O=C1c2cc([N+](=O)[O-])sc2C(=O)c2c([N+](=O)[O-])csc21: 1.76
6) CN(C)CCNC(=O)c1c(O)ccc2c1c1c(n2CCc2ccccc2)C(=O)c2ccccc2C1=O: 5.17
7) CCCCCCCCCCCCCCCCOCC(O)CO (stereo not given): 35.7
8) CN1CCN([C@H]2C[C@H]3[C@@H]4CC=C5C[C@@H](O)CC[C@]5(C)[C@H]4CC[C@]3(C)[C@H]2O)CC1: 51.9

----------
- Tested on: A549 NSCLC
- Assay comment: NCI tumour cell line growth inhibition, 48 h
Reported property: TGI

1) C=CC(C)(O)CC/C=C(\CO)C(=O)OC1C(C)OC(O[C@](C)(C=C)CC/C=C(\CO)C(=O)O[C@H]2C[C@@]3(C(=O)OC4OC(CO)C(O)C(O)C4OC4OC(C)C(OC5OC(CO)C(O)C5O)C(OC5OC(CO)C(O)C(O)C5O)C4O)C(CC2(C)C)C2=CCC4[C@@]5(C)CC[C@H](OC6OC(COC7OC(C)C(O)C(O)C7OC7OCC(O)C(O)C7O)C(O)C(O)C6NC(C)=O)C(C)(C)C5CC[C@@]4(C)[C@]2(C)C[C@H]3O)C(O)C1O (stereo partly drawn): 1.49 µM
2) CC(C)NC(=O)OCc1c(COC(=O)NC(C)C)c(-c2cc[n+](COC(=O)C3CCCCC3)cc2)n2c1CCC2: > 100 µM
3) FC(F)(F)c1ccc2nc(Sc3ccc4ccccc4c3)cnc2c1: > 100 µM
4) O=C(NOCCO)c1cc(CN2OCCCC2=O)c(F)c(F)c1Nc1ccc(I)cc1F: > 86.2 µM
5) C/C(=N\NC(N)=S)c1ccc(C2CCCCC2)cc1: > 100 µM
6) CN(C)CCNC(=O)c1c(O)ccc2c1c1c(n2CCc2ccccc2)C(=O)c2ccccc2C1=O: 23.2 µM
7) COc1cccc(NC2=C(Cl)C(=O)N(Cc3ccc(Cl)cc3)C2=O)c1: 26.8 µM
8) O=C1/C(=C\c2ccccc2)C2OCC=C3CN4CCC56c7ccccc7N1C5C2C3CC46 (stereo not drawn): > 100 µM
